From: patent US20110294738A1

measured-target: PTHR1 (Rattus norvegicus)
Sequence (P25961 27-591): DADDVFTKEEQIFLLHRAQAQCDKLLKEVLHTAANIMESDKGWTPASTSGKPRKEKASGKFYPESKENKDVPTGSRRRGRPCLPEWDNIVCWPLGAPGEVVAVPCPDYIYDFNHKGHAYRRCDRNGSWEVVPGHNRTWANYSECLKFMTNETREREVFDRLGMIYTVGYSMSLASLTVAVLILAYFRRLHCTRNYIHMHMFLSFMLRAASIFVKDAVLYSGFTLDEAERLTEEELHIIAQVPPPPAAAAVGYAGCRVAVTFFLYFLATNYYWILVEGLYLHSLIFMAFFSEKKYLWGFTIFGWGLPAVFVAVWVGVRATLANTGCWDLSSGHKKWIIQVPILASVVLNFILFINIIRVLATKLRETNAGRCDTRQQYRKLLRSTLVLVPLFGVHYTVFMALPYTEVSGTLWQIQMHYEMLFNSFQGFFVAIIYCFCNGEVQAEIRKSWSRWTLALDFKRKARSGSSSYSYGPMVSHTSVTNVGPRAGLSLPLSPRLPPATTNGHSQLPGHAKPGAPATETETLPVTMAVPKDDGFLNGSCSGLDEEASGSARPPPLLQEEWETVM
experiment-description: cAMP screening assay using DiscoveRX XS+ kit (PTH1-34 dose-response in UMR-106 cells)
test-conditions: compound 10 μM, PTH1-34 stimulated maximal response, 1−(Emax compound/Emax vehicle)
Inhibition of Maximal Response listing for selected sequences.
Please reply with the bare figure in % and do not write the unit itself.

Look over these answered cases.
NGEVQAEIKKSWSRWT [Compound 101] :: 25.30
TNAARSDTRQQYRKLL [Compound 80] :: 0.80

AYFRRLHSTRNYIH [Compound 7] tested on PTHR1 (Rattus norvegicus) gave Inhibition of Maximal Response: 36.00

YFRRLHSTRNYIH [Compound 6] tested on PTHR1 (Rattus norvegicus) gave Inhibition of Maximal Response: 10.80

DTRQQYRKLLKS [Compound 67] tested on PTHR1 (Rattus norvegicus) gave Inhibition of Maximal Response: 6.90

NIVRVLATKLRETNAGR [Compound 54] tested on PTHR1 (Rattus norvegicus) gave Inhibition of Maximal Response: 17.50

TNAGRSDTRQQYRALL [Compound 90] tested on PTHR1 (Rattus norvegicus) gave Inhibition of Maximal Response: 21.00

TNAGRSDTRQQYRKLLK [Compound 84] tested on PTHR1 (Rattus norvegicus) gave Inhibition of Maximal Response: −25.20

TNAGRSDTAQQYRKLL [Compound 78] tested on PTHR1 (Rattus norvegicus) gave Inhibition of Maximal Response: −29.20

TNAGRSDTRAQYRKLL [Compound 81] tested on PTHR1 (Rattus norvegicus) gave Inhibition of Maximal Response: −20.80

TNAGRSDTRQQYRKLA [Compound 88] tested on PTHR1 (Rattus norvegicus) gave Inhibition of Maximal Response: −25.00

SGRVLATKLR [Compound 71] tested on PTHR1 (Rattus norvegicus) gave Inhibition of Maximal Response: 13.50

GGYFRRLHSTRNYIH [Compound 13] tested on PTHR1 (Rattus norvegicus) gave Inhibition of Maximal Response: 29.20
